// protein stability index lookup, one value per entry
B1: SMG5 (parent)
chain: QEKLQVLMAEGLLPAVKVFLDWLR

- Variants of: B1
- EXPERIMENT NOTES: protein stability index of a GFP-peptide fusion (GPS, HEK-293T) (PSI 1-6); higher = more stable;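 further: lentivirally expressed fusions sorted by FACS into six bins by GFP to DsRed ratio, PSI derived from sequencing read proportions per bin multiplied by bin number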
- SETUP CONDITIONS: c terminus: a fixed tail appended
Answer as a number with no unit attached.

Use these answered entries as a reference point.
QEDLQVLMAEGLLPAVKVFLDWLR [K3D] = 2.02
QPKLQVLMAEGLLPAVKVFLDWLR [E2P] = 2.96
QEKLQVLMAEGLLPAYKVFLDWLR [V16Y] = 2.29
QEKLQWLMAEGLLPAVKVFLDWLR [V6W] = 2.51
QEKLQVLMAEGLLPAVKVFLDRLR [W22R] = 1.95

The recorded protein stability index for QEKLQVLMDEGLLPAVKVFLDWLR [A9D] is 1.76

The recorded protein stability index for QEKHQVLMAEGLLPAVKVFLDWLR [L4H] is 2.2

The recorded protein stability index for QEKLQVLMAEGLLPAVGVFLDWLR [K17G] is 1.91

The recorded protein stability index for QEKLQVLDAEGLLPAVKVFLDWLR [M8D] is 1.8

The recorded protein stability index for EEKLQVLMAEGLLPAVKVFLDWLR [Q1E] is 3.01
